# killing, average Δlog10(CFU/ml) per record follows
System: non-growing UPEC CFT073
experimental protocol: Dose-dependent killing analysis (CFU spot-plating) of stationary-phase UPEC
Type: cell-based, Escherichia coli
condition notes: E. coli in LPM (pH 5.5); drug concentration 2.5

Completed entries (count: 3):
• N[C@@H]1[C@H]2CN(c3nc4c(cc3F)c(=O)c(C(=O)O)cn4-c3ccc(F)cc3F)C[C@@H]12 = 0.225 log10(CFU/ml)
• CC(=O)[O][Pt]([NH2])([Cl])([Cl])([NH]C1CCCCC1)[O]C(C)=O = 1.360 log10(CFU/ml)
• N[C@@H]1CN(c2c(F)cc3c(=O)c(C(=O)O)cn([C@@H]4C[C@@H]4F)c3c2Cl)CC12CC2 = 0.324 log10(CFU/ml)

Could you please provide reported killing, average Δlog10(CFU/ml) for NC1CCN(c2nc3c(cc2F)c(=O)c(C(=O)O)cn3-c2ccc(F)cc2F)C1 (centres unmarked) ? Thanks!
0.183 log10(CFU/ml)

Could you please provide reported killing, average Δlog10(CFU/ml) for O=C(O)c1cn(-c2ccc(F)cc2)c2cc(N3CCNCC3)c(F)cc2c1=O ? Thanks!
0.011 log10(CFU/ml)
